Each recorded value in this set is attributed to the supplement of paper PMC10567573.

B1: HDAC6 (parent)
chain: ACAQLATGAACRLVEAVLSGEVLN

Variants of: B1
Assay: protein stability index of a GFP-peptide fusion (GPS, HEK-293T) (PSI 1-6); higher = more stable;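 also: lentivirally expressed fusions sorted by FACS into six bins by GFP to DsRed ratio, PSI derived from sequencing read proportions per bin multiplied by bin number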
Details: c terminus: a fixed tail appended
Class Criterion met: protein stability index at least 2. Class Criterion not met: protein stability index below 2.

Prompt line: Exam item: decide whether the reported protein stability index for E21K is at least 2.
Response line: Criterion not met

Prompt line: Again, but for A6G
Response line: Criterion met

Prompt line: Again, but for C11E
Response line: Criterion not met

Prompt line: Again, but for C2S
Response line: Criterion not met

Prompt line: Again, but for R12N
Response line: Criterion met

Prompt line: Again, but for G20R
Response line: Criterion met

Prompt line: Again, but for V22Y
Response line: Criterion met

Prompt line: Again, but for T7N
Response line: Criterion not met

Prompt line: Again, but for Q4I
Response line: Criterion not met

Prompt line: Again, but for A10D
Response line: Criterion met

Prompt line: Again, but for A6E
Response line: Criterion met

Prompt line: Again, but for G8T
Response line: Criterion met

Prompt line: Again, but for L23A
Response line: Criterion met

Prompt line: Again, but for G20P
Response line: Criterion met

Prompt line: Again, but for L18R
Response line: Criterion met

Prompt line: Again, but for V17D
Response line: Criterion met

Prompt line: Again, but for E21I
Response line: Criterion met

Prompt line: Again, but for A1P
Response line: Criterion not met

Prompt line: Again, but for L18C
Response line: Criterion not met

Prompt line: Again, but for E15H
Response line: Criterion met

Prompt line: Again, but for G8C
Response line: Criterion met

Prompt line: Again, but for L13K
Response line: Criterion met

Prompt line: Again, but for L23W
Response line: Criterion met

Prompt line: Again, but for A6C
Response line: Criterion met

Prompt line: Again, but for L5H
Response line: Criterion not met

Prompt line: Again, but for V22D
Response line: Criterion met

Prompt line: Again, but for E21W
Response line: Criterion met

Prompt line: Again, but for L18D
Response line: Criterion met

Prompt line: Again, but for R12G
Response line: Criterion not met

Prompt line: Again, but for A1G
Response line: Criterion not met

Prompt line: Again, but for L5P
Response line: Criterion met

Prompt line: Again, but for V22S
Response line: Criterion not met

Prompt line: Again, but for C11P
Response line: Criterion met

Prompt line: Again, but for A1S
Response line: Criterion met

Prompt line: Again, but for L5T
Response line: Criterion not met

Prompt line: Again, but for R12T
Response line: Criterion met

Prompt line: Again, but for V17P
Response line: Criterion met

Prompt line: Again, but for A1T
Response line: Criterion met

Prompt line: Again, but for L13M
Response line: Criterion met

Prompt line: Again, but for V14M
Response line: Criterion met

Prompt line: Again, but for C2Q
Response line: Criterion met

Prompt line: Again, but for L18K
Response line: Criterion met

Prompt line: Again, but for L5M
Response line: Criterion met
